Reference source: patent US20240034792A1

- ASSAYED SYSTEM: T1, Human PD-1-His protein (ACROBiosystems, # PD1-H5221) (human, UniProt Q15116 25-167)
- T1 construct: Bought reagent, coated on the ELISA plate; also called human PD-1 protein; human PD-1 antigen; not shown: His tag
- T1 sequence (Q15116 25-167 limits assumed): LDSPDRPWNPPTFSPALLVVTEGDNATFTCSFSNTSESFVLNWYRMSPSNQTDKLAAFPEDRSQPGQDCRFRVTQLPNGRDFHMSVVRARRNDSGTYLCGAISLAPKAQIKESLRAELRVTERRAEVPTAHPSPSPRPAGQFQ
- METHOD NOTES: ELISA, plate-coated human PD-1-His
- Description: Human PD-1-His protein (ACROBiosystems, # PD1-H5221) was diluted to 2 μg/mL with PBS, added to a 96-well plate (Corning, cat#9018) at 100 μL/well, and incubated at 4° C. overnight. […] The reactions were terminated by adding 50 μL of stop buffer (BBI life sciences, #E661006-0200) to each well, and the absorbance values at 450 nm (OD450) were measured using a microplate reader (PerkinElemer, #Enspire). The half maximal effective concentration (EC₅₀) was calculated from the measurement results.
In this section we review reported OD Maximum values for a set of binders.
Number only, please.

>>> obs_value("PR000679 (antibody, human IgG4 S228P, kappa, V domains shown, Fully human recombinant H2L2 antibody, human IgG4, kappa light chain; also called 4004_6C11C6) VH: QVQLVQSGTEVKKPGSSVKVSCKASGGTFSSYAISWVRQAPGQGLEWMGGIIPIFDTVSSAQKFQGRVTITADKSTSTAYMELFSLRSEDTAVYYCARSPPYSSNWYQYFQHWGQGTLVTVSS VL: DIQMTQSPSTLSASVGDRVTITCRASQTISIWLAWYQQKPGKAPKLLIYKASSLESGVPSRFSGSGSGTEFTLTISSLQPDDFATYYCQQFNSYWTFGQGTKVEIKR")
3.31

# input for lookup
Query (binder): PR000675 (antibody, human IgG4 S228P, kappa, V domains shown, Fully human recombinant H2L2 antibody, human IgG4, kappa light chain; also called 4004_19G8F2) VH: EVQLLESGGGLVQPGGSLRLSCVDSGFTFSSYAMTWVRQAPGKGLEWVSGISGSGYSTYYADSVKGRFTISRDNSKKTLYLQMNSLRAEDTAVYYCAELSLDYWGQGTLVTVSS VL: EIVLTQSPATLSLSPGERATLSCRASQSVSRYLAWYQQKPGQAPRLLMHDAANRATGLPARFNGSGSGTDFTLTISSLEPEDFAVYYCQQRNNWPLTFGGGTKVEIKR ; field requested: OD Maximum 3.31
